- System: MDA-N
- ASSAY_OVERVIEW: NCI tumour cell line growth inhibition, 48 h
Items are presented alongside their recorded TGI.

Incoming: Look up TGI: C=CCn1cnc2c(=O)[nH]c(Nc3ccccc3)nc21
Outgoing: > 100 µM

Incoming: Look up TGI: COC1(CC[C@H](C)COC2OC(CO)C(O)C(O)C2O)O[C@H]2C[C@H]3[C@@H]4CC=C5C[C@@H](OC6OC(CO)C(O)C(OC7OC(CO)C(O)C(O)C7O)C6OC6OC(C)C(O)C(O)C6O)CC[C@]5(C)[C@H]4CC[C@]3(C)[C@H]2[C@@H]1C (stereo not given in full)
Outgoing: 27 µM

Incoming: Look up TGI: Cc1ccc(-c2cc(-c3c(C)nn(C)c(=O)c3N)[nH]n2)cc1
Outgoing: > 100 µM

Incoming: Look up TGI: O=C1C(Cl)C(c2cc3cc(Br)ccc3nc2Cl)N1c1c(Cl)cccc1Cl (stereo not given)
Outgoing: > 25 µM

Incoming: Look up TGI: O=c1c(-c2ccc(O)cc2)coc2cc(OC3OC(CO)C(O)C(O)C3O)cc(O)c12 (stereo not given)
Outgoing: > 100 µM

###

Items are presented alongside their recorded TGI.
- Test system: SK-MEL-5 melanoma
- ASSAY_OVERVIEW: NCI tumour cell line growth inhibition, 48 h
Where a SMILES comes first, the peptide text is derived from it. [ ]: non-standard residue; d: D form. 2Nal = N[CH](Cc1ccc2ccccc2c1)C(=O)O

COMPOUND	TGI
CC(=N)N(C)O	> 100 µM
NC(N)=NC(N)=Nc1ccccc1 (tested in a mixture with another compound)	> 100 µM
CC1CCc2c(c(CC3CC(=O)NC(=O)C3)nn2-c2ccccc2)C1 (stereo not given)	> 100 µM
O=C(Cn1c(C(=O)c2ccccc2)nc2ccccc21)c1ccc(F)cc1	> 82.2 µM
CN1C(=O)C23CCCCC2CC1(c1ccccc1)S3 (stereo not given)	> 100 µM

Incoming: Look up TGI: CN(C)c1ccc(C(=NN)c2ccc(N(C)C)cc2)cc1
Outgoing: > 100 µM

Incoming: Look up TGI: CC(C)C(NC(=O)C(CCCCN)NC(=O)C(Cc1c[nH]c2ccccc12)NC(=O)C(Cc1ccc(O)cc1)NC(=O)C(CS)NC(=O)C(N)Cc1ccc2ccccc2c1)C(=O)NC(CS)C(=O)NC(C(N)=O)C(C)O (stereo not given) (H-[2Nal]CYWKVCT-NH2; configuration not given here)
Outgoing: > 12.5 µM

Incoming: Look up TGI: [O-][n+]1c(-c2ccccc2)c2nc3ccccc3nc2c2ccccc21
Outgoing: > 100 µM

Incoming: Look up TGI: CC(CCCC1SCC2NC(=O)NC21)C(=O)O (stereo not given)
Outgoing: > 100 µM

Incoming: Look up TGI: COc1cc2c(cc1OC)c1c(OC)c(OC)cc3c1c1c2sc(=S)n1CC3
Outgoing: > 100 µM

Incoming: Look up TGI: O=C(NN1C(=O)CSC12CCCC2)C(O)c1ccccc1 (stereo not given)
Outgoing: > 100 µM

###

- System: DMS 273 small cell lung
- ASSAY_OVERVIEW: NCI tumour cell line growth inhibition, 48 h
Items are presented alongside their recorded TGI.

>>> print(df.to_string())
                                   compound  data_value
0  O=C(O)CC1CC=C[C@H]2c3cc4c(cc3C(=O)NC12)OCO4 (stereo not given in full)     > 75 µM
1              CCCCN=C1OCc2[nH][nH]c(=O)c21    > 100 µM
2       CCOC(=O)c1c2cccccc2n2c(=O)cc(C)nc12    > 100 µM
3  O=C(c1ccccc1)c1c(CC(O)c2ccccc2)n(C(=O)c2ccccc2)c2ccccc12 (stereo not given)    > 100 µM

Below: the item to evaluate.
Incoming: Look up TGI: [O-][n+]1c(-c2ccccc2)c2nc3ccccc3nc2c2ccccc21
Outgoing: > 100 µM

###

- System: M14 melanoma
- ASSAY_OVERVIEW: NCI tumour cell line growth inhibition, 48 h
REPORTED_ENDPOINT: TGI

Below: 3 compounds and their reported TGI.
                                   compound  target_under_test  data_value
0  C/C(CCn1[nH]c(=O)ccc1=O)=N\Nc1ccc([N+](=O)[O-])cc1[N+](=O)[O-]       M14 melanoma    > 100 µM
1                           CCN(CC)COC(=S)S       M14 melanoma    > 100 µM
2  COc1cc2c(c(OC(C)=O)c1OC(C)=O)-c1ccc(SC)c(=O)cc1C(NC(C)=O)CC2 (stereo unspecified)       M14 melanoma   > 69.1 µM

Incoming: Look up TGI: c1ccc(C2=Nc3cccc4cccc(c34)N2)cc1
Outgoing: > 100 µM

Incoming: Look up TGI: O=C(O)CC1CC=C[C@H]2c3cc4c(cc3C(=O)NC12)OCO4 (stereo partly specified)
Outgoing: > 75 µM

###

Items are presented alongside their recorded TGI.
- Test system: SN12C renal
- ASSAY_OVERVIEW: NCI tumour cell line growth inhibition, 48 h

>>> print(df.to_string())
                                   compound  data_value
0       CCOC(=O)c1c2cccccc2n2c(=O)cc(C)nc12    > 100 µM
1  CCCCCCCCCc1c(O)c(O)c(CCCCCCCCC)c(CCCCCCCCC)c1CCCCCCCCC    > 100 µM

Below: the item to evaluate.
Incoming: Look up TGI: O=C1CN(c2ccc(Cl)cc2)C(=O)CN1NCNN1CC(=O)N(c2ccc(Cl)cc2)CC1=O
Outgoing: > 100 µM

###

- Test system: LOX IMVI melanoma
- ASSAY_OVERVIEW: NCI tumour cell line growth inhibition, 48 h
REPORTED_ENDPOINT: TGI

Below: 5 compounds and their reported TGI.
                                   compound  data_value
0  CC1=NN(C(=O)c2ccc(Cl)cc2)C(=O)/C1=C/c1ccco1    > 100 µM
1  COC(=O)[C@@H]1Cc2cc(O)c(O)cc2C2(CCN(C)CC2)O1     > 10 µM
2  Cc1ccc(NC(=O)CC/C(CC(=O)C(C)(C)C)=N\Nc2ccc([N+](=O)[O-])cc2[N+](=O)[O-])cc1C     97.2 µM
3  CC(=O)O[C@H]1C(=O)[C@@]2(C)[C@H]([C@H](OC(=O)c3ccccc3)[C@@]3(O)C[C@H](O)C(C)=C1C3(C)C)[C@]1(OC(C)=O)CO[C@@H]1C[C@@H]2O    > 100 µM
4  C#CCN(N=O)C(=O)NCCCC(NC(C)=O)C(=O)NCc1ccccc1 (configuration not stated)    > 100 µM

Incoming: Look up TGI: COc1cc(C23OCC(Cc4cc5c(cc42)OCO5)C3CO)cc(OC)c1OC (configuration not stated)
Outgoing: 13.2 µM

Incoming: Look up TGI: Cc1c(-c2ccccc2)c(C#N)c2nnn(-c3cccc(Cl)c3)c(=O)n12
Outgoing: > 100 µM

Incoming: Look up TGI: COc1ccc(/C=C2/CCS(=O)(=O)c3ccc(C)cc3C2=O)cc1OC
Outgoing: 20.4 µM

###

- Tested on: HCT-15 colon
- ASSAY_OVERVIEW: NCI tumour cell line growth inhibition, 48 h
REPORTED_ENDPOINT: GI50

Below: 2 molecules and their reported GI50.
In [3]: df
Out[3]:
                                   molecule  target_under_test  reported_endpoint  data_value
0  COC(=O)c1ccc2c(c1)c1c(C)c3ccncc3c(C)c1n2C       HCT-15 colon               GI50      215 nM
1  CN1CCN(Cc2ccc(NC(=O)c3cncc(C#Cc4cnn5ccccc45)c3)cc2C(F)(F)F)CC1       HCT-15 colon               GI50      818 nM

Below: the item to evaluate.
Incoming: Look up GI50: O=C(NN1C(=O)CSC12CCCC2)C(O)c1ccccc1 (stereo not drawn)
Outgoing: > 100000 nM

###

- Tested on: OVCAR-5 ovarian
- ASSAY_OVERVIEW: NCI tumour cell line growth inhibition, 48 h
REPORTED_ENDPOINT: TGI

>>> print(df.to_string())
                                   molecule  reported_endpoint  data_value
0  C[C@@H]1CC[C@@H]2[C@@H](C)C[C@H]3[C@@H]4C(C)(C)OC(=O)[C@]4(C)C(=O)[C@@]23C1=O                TGI    > 100 µM
1  COc1ccc2c(c1)N(CCO)C1=C(C(=O)OC1)C2c1ccccc1 (stereo not drawn)                TGI     > 50 µM

Below: the item to evaluate.
Incoming: Look up TGI: Cc1ccc(C)n1-n1c(-c2ccccc2)n[nH]c1=O
Outgoing: > 100 µM

Provenance of the data: PubChem BioAssay (NCI)
